- system-under-test: PKM2 (Homo sapiens, UniProt P14618)
- Sequence (P14618 whole entry): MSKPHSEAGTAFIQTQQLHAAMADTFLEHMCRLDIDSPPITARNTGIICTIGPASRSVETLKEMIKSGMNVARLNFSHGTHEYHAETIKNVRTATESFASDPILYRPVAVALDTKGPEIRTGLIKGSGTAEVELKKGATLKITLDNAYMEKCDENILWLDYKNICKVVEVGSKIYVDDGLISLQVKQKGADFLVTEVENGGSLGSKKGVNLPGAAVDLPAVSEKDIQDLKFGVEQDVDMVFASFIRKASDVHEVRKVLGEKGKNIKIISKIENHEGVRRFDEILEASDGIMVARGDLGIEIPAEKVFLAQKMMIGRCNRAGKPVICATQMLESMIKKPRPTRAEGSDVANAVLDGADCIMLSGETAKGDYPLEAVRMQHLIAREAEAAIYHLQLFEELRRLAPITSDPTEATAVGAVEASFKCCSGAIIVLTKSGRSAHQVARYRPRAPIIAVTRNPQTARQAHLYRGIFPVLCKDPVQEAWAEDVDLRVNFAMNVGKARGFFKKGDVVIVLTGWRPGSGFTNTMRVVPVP
- method: PKM2 Assay (activation, LDH-coupled, absorbance at 340 nm)
- Format: biochemical
- experimental-conditions: Table 5
recorded-metric: AC50

>>> reading("O=C(c1ccc(NS(=O)(=O)c2cccc3cccnc23)cc1)N1CCN(C2(c3ccc(F)cc3)CC2)CC1")
"< 100 nM"
>>> reading("CC(C)(C1CC1)N1CCN(C(=O)c2ccc(NS(=O)(=O)c3cccc4cccnc34)cc2)CC1")
"< 100 nM"
>>> reading("O=C(c1ccc(NS(=O)(=O)c2cccc3cccnc23)cc1)N1CCN(C2(c3ccccc3)CCCCC2)CC1")
"< 100 nM"
>>> reading("COc1cc(C(=O)N2CCN(C(=O)c3cscn3)CC2)ccc1NS(=O)(=O)c1cccc2cccnc12")
"100 to 500 nM"

----------
The reader will find reported AC50 values listed item by item below.
- system-under-test: PKM2 (Homo sapiens, UniProt P14618)
- method: PKM2 Assay (activation, LDH-coupled, absorbance at 340 nm)
- Format: biochemical
- experimental-conditions: Table 4
recorded-metric: AC50

>>> reading("CC(c1c(F)cccc1F)N1CCN(C(=O)c2ccc(NS(=O)(=O)c3cccc4cccnc34)cc2)[C@H](C)C1 (stereo partly shown)")
"100 to 500 nM"
>>> reading("C[C@@H]1CN(Cc2ccc(F)c(F)c2F)CCN1C(=O)c1ccc(NS(=O)(=O)c2cccc3cccnc23)cc1")
"< 100 nM"
>>> reading("CC(c1c(F)cc(F)cc1F)N1CCN(C(=O)c2ccc(NS(=O)(=O)c3cccc4cccnc34)cc2)[C@H](C)C1 (stereo partly shown)")
"< 100 nM"
>>> reading("CC1CN(Cc2ccc(F)cc2)CC(C)N1C(=O)c1ccc(NS(=O)(=O)c2cccc3cccnc23)cc1 (stereo not shown)")
"< 100 nM"

----------
- system-under-test: PKM2 (Homo sapiens)
- method: PKM2 Assay (activation, LDH-coupled, absorbance at 340 nm)
- Assay type: biochemical
- experimental-conditions: Table 4
The reader will find reported AC50 values listed item by item below.
recorded-metric: AC50

>>> reading("CC1CN(Cc2cc(F)c(F)c(F)c2)CC(C)N1C(=O)c1ccc(NS(=O)(=O)c2cccc3cccnc23)cc1 (stereo not shown) [Compound 201]")
"100 to 500 nM"
>>> reading("C[C@H]1CN(Cc2ccccc2F)CCN1C(=O)c1ccc(NS(=O)(=O)c2cccc3cccnc23)cc1 [Compound 143]")
"< 100 nM"
>>> reading("C[C@H]1CN(CC2CCCC2)CCN1C(=O)c1ccc(NS(=O)(=O)c2cccc3cccnc23)cc1Cl [Compound 186]")
"< 100 nM"
>>> reading("CC(c1cc(F)c(F)c(F)c1)N1CCN(C(=O)c2ccc(NS(=O)(=O)c3cccc4cccnc34)cc2)[C@H](C)C1 (stereo partly shown) [Compound 158]")
"100 to 500 nM"
>>> reading("COc1ccccc1N1CCN(C(=O)c2ccc(NS(=O)(=O)c3cccc4cccnc34)cc2)C(C)C1 (stereo not shown) [Compound 223]")
"< 100 nM"
>>> reading("C[C@H]1CN(C[C@H]2CCCO2)CCN1C(=O)c1ccc(NS(=O)(=O)c2cccc3cccnc23)cc1 (stereo in doubt) [Compound 211]")
"< 100 nM"
>>> reading("C[C@@H]1CN(Cc2cc(F)cc(F)c2)CCN1C(=O)c1ccc(NS(=O)(=O)c2cccc3cccnc23)cc1 [Compound 119]")
"< 100 nM"
>>> reading("CCOC(=O)N1CCN(C(=O)c2ccc(NS(=O)(=O)c3cccc4cccnc34)cc2)[C@@H](C)C1 [Compound 107]")
"500 to 1000 nM"
>>> reading("C[C@@H]1CN(Cc2ccccc2F)CCN1C(=O)c1ccc(NS(=O)(=O)c2cccc3cccnc23)cc1 [Compound 150]")
"< 100 nM"
>>> reading("CC(c1ccc(Cl)c(F)c1)N1CCN(C(=O)c2ccc(NS(=O)(=O)c3cccc4cccnc34)cc2)[C@@H](C)C1 (stereo partly shown) [Compound 182]")
"100 to 500 nM"
>>> reading("O=C(c1ccc(NS(=O)(=O)c2cccc3cccnc23)cc1)N1CCN(Cc2cc(F)cc(F)c2)C[C@@H]1c1ccccc1 [Compound 181]")
"100 to 500 nM"
>>> reading("CC(c1ccc(F)cc1Cl)N1CCN(C(=O)c2ccc(NS(=O)(=O)c3cccc4cccnc34)cc2)[C@H](C)C1 (stereo partly shown) [Compound 191]")
"100 to 500 nM"
>>> reading("C[C@H]1CN(Cc2ccc(F)cc2)CCN1C(=O)c1ccc(NS(=O)(=O)c2cccc3cccnc23)cc1Cl [Compound 184]")
"100 to 500 nM"
>>> reading("CC[C@H]1CN(Cc2ccc(F)cc2)CCN1C(=O)c1ccc(NS(=O)(=O)c2cccc3cccnc23)cc1 [Compound 134]")
"100 to 500 nM"
>>> reading("C[C@H]1CN(Cc2ccc(F)cc2)CCN1C(=O)c1ccc(NS(=O)(=O)c2cccc3cccnc23)cc1 [Compound 152]")
"< 100 nM"
>>> reading("C[C@@H]1CN(CC2CCCCC2)CCN1C(=O)c1ccc(NS(=O)(=O)c2cccc3cccnc23)cc1 [Compound 151]")
"< 100 nM"
>>> reading("O=C(c1ccc(NS(=O)(=O)c2cccc3cccnc23)cc1)N1CC2CCC(C1)N2Cc1cc(F)cc(F)c1 [Compound 218]")
"100 to 500 nM"
>>> reading("C[C@@H]1CN(CC2CC2)CCN1C(=O)c1ccc(NS(=O)(=O)c2cccc3cccnc23)cc1 [Compound 113]")
"< 100 nM"
>>> reading("C[C@@H]1CN(C(=O)O[C@@H]2CCCOC2)CCN1C(=O)c1ccc(NS(=O)(=O)c2cccc3cccnc23)cc1 [Compound 127]")
"100 to 500 nM"
>>> reading("C[C@@H]1CN(C(=O)c2ccc(NS(=O)(=O)c3cccc4cccnc34)cc2)CCN1C(=O)c1ccccn1 [Compound 102]")
"100 to 500 nM"
>>> reading("CC(C)[C@H]1CN(Cc2cc(F)cc(F)c2)CCN1C(=O)c1ccc(NS(=O)(=O)c2cccc3cccnc23)cc1 [Compound 176]")
"1000 to 20000 nM"
>>> reading("CC(c1ccc(F)c(F)c1F)N1CCN(C(=O)c2ccc(NS(=O)(=O)c3cccc4cccnc34)cc2)[C@@H](C)C1 (stereo partly shown) [Compound 173]")
"100 to 500 nM"
>>> reading("O=C(c1ccc(NS(=O)(=O)c2cccc3cccnc23)cc1)N1C2CCC1CN(Cc1ccc(F)cc1)C2 [Compound 226]")
"< 100 nM"
>>> reading("C[C@H]1CN(Cc2c(F)cc(F)cc2F)CCN1C(=O)c1ccc(NS(=O)(=O)c2cccc3cccnc23)cc1Cl [Compound 188]")
"500 to 1000 nM"
>>> reading("C[C@H]1CN(CC2CCCCO2)CCN1C(=O)c1ccc(NS(=O)(=O)c2cccc3cccnc23)cc1 (stereo partly shown) [Compound 156]")
"500 to 1000 nM"
>>> reading("C[C@@H]1CN(CC2CCCCO2)CCN1C(=O)c1ccc(NS(=O)(=O)c2cccc3cccnc23)cc1 (stereo partly shown) [Compound 163]")
"< 100 nM"
>>> reading("CC1CN(Cc2c(F)ccc(F)c2F)CC(C)N1C(=O)c1ccc(NS(=O)(=O)c2cccc3cccnc23)cc1 (stereo not shown) [Compound 199]")
"< 100 nM"
>>> reading("C[C@@H]1CN(Cc2cc(F)c(F)c(F)c2)CCN1C(=O)c1ccc(NS(=O)(=O)c2cccc3cccnc23)cc1 [Compound 149]")
"< 100 nM"

----------
The reader will find reported AC50 values listed item by item below.
- system-under-test: PKM2 (Homo sapiens, UniProt P14618)
- method: PKM2 Assay (activation, LDH-coupled, absorbance at 340 nm)
- Assay type: biochemical
- experimental-conditions: Table 5
recorded-metric: AC50

>>> reading("O=C(c1ccc(NS(=O)(=O)c2cccc3cccnc23)cc1)N1CCN(C[C@H]2CCOC2)CC1")
"< 100 nM"
>>> reading("O=C(OCCC1CCCC1)N1CCN(C(=O)c2ccc(NS(=O)(=O)c3cccc4cccnc34)c(OC(F)(F)F)c2)CC1")
"500 to 1000 nM"
>>> reading("O=C(c1ccc(NS(=O)(=O)c2cccc3cccnc23)cc1F)N1CCN(Cc2ccc(F)cc2)CC1")
"< 100 nM"
>>> reading("Cc1cnc(C(=O)N2CCN(C(=O)c3ccc(NS(=O)(=O)c4cccc5cccnc45)c(OC(F)(F)F)c3)CC2)cn1")
"1000 to 20000 nM"
>>> reading("O=C(c1ccc(NS(=O)(=O)c2cccc3cccnc23)cc1F)N1CCN(CC2CCOCC2)CC1")
"< 100 nM"
>>> reading("O=C(c1ccc(NS(=O)(=O)c2cccc3cccnc23)c(OC(F)(F)F)c1)N1CCN(Cc2ccc(F)cc2F)CC1")
"500 to 1000 nM"
>>> reading("O=C(c1ccc(NS(=O)(=O)c2cccc3cccnc23)c(OC(F)(F)F)c1)N1CCN(CC2CCCC2)CC1")
"500 to 1000 nM"
>>> reading("O=C(c1ccc(NS(=O)(=O)c2cccc3cccnc23)cc1)N1CCN(C(=O)c2cn[nH]c2)CC1")
"< 100 nM"
>>> reading("O=C(c1ccc(NS(=O)(=O)c2cccc3cccnc23)cc1Cl)N1CCN(CC2CCCC2)CC1")
"100 to 500 nM"
>>> reading("CC(C)(c1ccccc1)N1CCN(C(=O)c2ccc(NS(=O)(=O)c3cccc4cccnc34)c(OC(F)(F)F)c2)CC1")
"100 to 500 nM"
>>> reading("O=C(c1ccc(NS(=O)(=O)c2cccc3cccnc23)nc1)N1CCN(CC2CC2)CC1")
"1000 to 20000 nM"
>>> reading("O=C(c1ccc(NS(=O)(=O)c2cccc3cccnc23)c(OC(F)(F)F)c1)N1CCN(Cc2ccc(F)cc2)CC1")
"1000 to 20000 nM"
>>> reading("[2H]C(c1ccc(F)cc1)N1CCN(C(=O)c2ccc(NS(=O)(=O)c3cccc4cccnc34)cc2)CC1 (centres unmarked)")
"< 100 nM"
>>> reading("O=C(c1ccc(NS(=O)(=O)c2cccc3cccnc23)c(OC(F)(F)F)c1)N1CCN(Cc2ccc(Cl)cc2Cl)CC1")
"500 to 1000 nM"
>>> reading("O=C(c1ccc(NS(=O)(=O)c2cccc3cccnc23)c(OC(F)(F)F)c1)N1CCN(Cc2ccccc2F)CC1")
"100 to 500 nM"
>>> reading("CC(C)(c1cccc(F)c1)N1CCN(C(=O)c2ccc(NS(=O)(=O)c3cccc4cccnc34)cc2)CC1")
"< 100 nM"
>>> reading("O=C(c1ccc(NS(=O)(=O)c2cccc3cccnc23)cc1)N1CCN(C(=O)C2CCCCO2)CC1 (centres unmarked)")
"< 100 nM"
>>> reading("O=C(c1ccc(NS(=O)(=O)c2cccc3cccnc23)c(OC(F)(F)F)c1)N1CCN(Cc2cn[nH]c2)CC1")
"100 to 500 nM"
>>> reading("O=C(c1ccc(NS(=O)(=O)c2cccc3cccnc23)cc1)N1CCN(C(=O)C2CCCO2)CC1 (centres unmarked)")
"500 to 1000 nM"
>>> reading("O=C(c1ccc(NS(=O)(=O)c2cccc3cccnc23)c(OC(F)(F)F)c1)N1CCN(Cc2ccn[nH]2)CC1")
"100 to 500 nM"
>>> reading("O=C(c1cnc(NS(=O)(=O)c2cccc3cccnc23)cn1)N1CCN(CC2CC2)CC1")
"> 20000 nM"
>>> reading("O=C(c1cccnc1)N1CCN(C(=O)c2ccc(NS(=O)(=O)c3cccc4cccnc34)c(OC(F)(F)F)c2)CC1")
"500 to 1000 nM"
>>> reading("O=C(c1ccc(NS(=O)(=O)c2cccc3cccnc23)cc1Cl)N1CCN(CC2CCCO2)CC1 (centres unmarked)")
"1000 to 20000 nM"
>>> reading("O=C(O[C@H]1CCOC1)N1CCN(C(=O)c2ccc(NS(=O)(=O)c3cccc4cccnc34)c(OC(F)(F)F)c2)CC1")
"1000 to 20000 nM"
>>> reading("O=C(c1ccc(NS(=O)(=O)c2cccc3cccnc23)nc1)N1CCN(Cc2cc(F)cc(F)c2)CC1")
"100 to 500 nM"
>>> reading("O=C(c1ccc(NS(=O)(=O)c2cccc3cccnc23)c(OC(F)(F)F)c1)N1CCN(Cc2cccc(Cl)c2)CC1")
"100 to 500 nM"
>>> reading("O=C(c1ccc(NS(=O)(=O)c2cccc3cccnc23)c(OC(F)(F)F)c1)N1CCN(Cc2c[nH]cn2)CC1")
"100 to 500 nM"
>>> reading("COc1cc(C(=O)N2CCN(C(=O)c3cccc(OC)c3F)CC2)ccc1NS(=O)(=O)c1cccc2cccnc12")
"100 to 500 nM"
>>> reading("CC(c1c(F)cccc1F)N1CCN(C(=O)c2ccc(NS(=O)(=O)c3cccc4cccnc34)cc2)CC1 (centres unmarked)")
"< 100 nM"
